# test.system: TNFRSF9, Q07011
# protocol.description: Kd (SPR)
Listing of recorded pKd by entry.
Formally, pKd is defined as -log10 of the concentration c, with c in mol/L.

For unnamed (protein) chain 1: EVQLVQSGAEVKKPGESLRISCKGSGYSFSTYWISWVRQMPGKGLEWMGKIYPGDSYTNYSPSFQGQVTISADKSISTAYLQWSSLKASDTAMYYCTRGYGVFDYWGQGTLVTVSS chain 2: SYELTQPPSVSVSPGQTASITCSGDNIGDQYAHWYQQKPGQSPVLVIYQDKNRPSGIPERFSGSNSGNTATLTISGTQAMDEADYYCATYTGFGSLAVFGGGTKLTVL the binder record lists pKd as 7.02

Value of pKd reported for the binder unnamed (protein) chain 1: EVQLVQSGAEVKKPGESLRISCKGSGYSFSTYWISWVRQMPGKGLEWMGKIYPGDSYTNYSPSFQGQVTISADKSISTAYLQWSSLKASDTAMYYCARGHGVFDYWGQGTLVTVSS chain 2: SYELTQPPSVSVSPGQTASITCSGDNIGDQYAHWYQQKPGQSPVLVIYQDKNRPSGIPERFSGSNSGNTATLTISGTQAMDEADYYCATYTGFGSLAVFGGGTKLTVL is 6.50
